# TARGET OR TEST SYSTEM: PI3K γ (Homo sapiens (Human), UniProt P48736)
# Sequence (P48736 whole entry): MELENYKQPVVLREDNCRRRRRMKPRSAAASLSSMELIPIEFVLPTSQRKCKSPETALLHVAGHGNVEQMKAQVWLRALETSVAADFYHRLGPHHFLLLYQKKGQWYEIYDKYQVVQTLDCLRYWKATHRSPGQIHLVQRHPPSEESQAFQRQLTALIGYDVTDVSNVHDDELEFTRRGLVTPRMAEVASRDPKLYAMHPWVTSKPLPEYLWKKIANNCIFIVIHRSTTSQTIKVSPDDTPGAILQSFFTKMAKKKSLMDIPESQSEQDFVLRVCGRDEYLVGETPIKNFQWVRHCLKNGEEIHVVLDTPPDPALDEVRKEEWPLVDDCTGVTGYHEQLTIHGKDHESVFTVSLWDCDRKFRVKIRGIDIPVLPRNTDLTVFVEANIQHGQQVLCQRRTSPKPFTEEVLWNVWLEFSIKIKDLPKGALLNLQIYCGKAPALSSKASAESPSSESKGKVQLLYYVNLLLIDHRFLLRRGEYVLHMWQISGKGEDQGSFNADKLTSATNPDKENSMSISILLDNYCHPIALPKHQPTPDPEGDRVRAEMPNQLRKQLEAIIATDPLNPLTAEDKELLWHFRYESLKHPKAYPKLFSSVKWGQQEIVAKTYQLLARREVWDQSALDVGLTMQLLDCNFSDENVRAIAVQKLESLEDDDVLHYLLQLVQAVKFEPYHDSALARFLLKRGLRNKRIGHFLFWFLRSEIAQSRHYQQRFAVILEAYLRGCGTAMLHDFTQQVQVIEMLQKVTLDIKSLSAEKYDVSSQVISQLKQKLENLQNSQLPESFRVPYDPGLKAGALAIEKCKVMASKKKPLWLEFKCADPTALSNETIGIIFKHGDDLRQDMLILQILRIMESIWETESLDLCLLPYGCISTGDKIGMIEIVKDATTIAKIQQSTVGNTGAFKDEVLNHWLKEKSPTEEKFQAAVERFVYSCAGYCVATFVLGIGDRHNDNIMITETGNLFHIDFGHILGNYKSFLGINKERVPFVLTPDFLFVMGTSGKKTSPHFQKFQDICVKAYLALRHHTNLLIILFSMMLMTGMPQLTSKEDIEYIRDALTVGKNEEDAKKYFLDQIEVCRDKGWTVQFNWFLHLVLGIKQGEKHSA
# PROTOCOL DETAILS: PI 3-Kinase (human) HTRF assay, p110γ
# Format: biochemical
# ASSAY CONDITIONS: read-out: PI3K γ IC50
pIC50: −log10 of the molar value.
Parameter pIC50: see the listing below.

// solved cases for pIC50 follow
Nc1nc2cc(-c3ccc4ncc(N5CC(N6CCN(CCO)CC6)C5)cc4n3)ccc2o1 | > 6.00
CC(C)N1CCN(C2CN(c3cnc4ccc(-c5ccc6oc(N)nc6c5)nc4n3)C2)CC1 | < 5.00

Now for another entry.
[Q] Any idea what pIC50 came out for Nc1nc2cc(-c3ccc4ncc(C(=O)N5CCOCC5)n4c3)ccc2o1 on PI3K γ (Homo sapiens (Human), UniProt P48736)?
[A] > 5.00

----------
# TARGET OR TEST SYSTEM: PI3K α (Homo sapiens (Human))
# Sequence (P42336 whole entry, one chain of several): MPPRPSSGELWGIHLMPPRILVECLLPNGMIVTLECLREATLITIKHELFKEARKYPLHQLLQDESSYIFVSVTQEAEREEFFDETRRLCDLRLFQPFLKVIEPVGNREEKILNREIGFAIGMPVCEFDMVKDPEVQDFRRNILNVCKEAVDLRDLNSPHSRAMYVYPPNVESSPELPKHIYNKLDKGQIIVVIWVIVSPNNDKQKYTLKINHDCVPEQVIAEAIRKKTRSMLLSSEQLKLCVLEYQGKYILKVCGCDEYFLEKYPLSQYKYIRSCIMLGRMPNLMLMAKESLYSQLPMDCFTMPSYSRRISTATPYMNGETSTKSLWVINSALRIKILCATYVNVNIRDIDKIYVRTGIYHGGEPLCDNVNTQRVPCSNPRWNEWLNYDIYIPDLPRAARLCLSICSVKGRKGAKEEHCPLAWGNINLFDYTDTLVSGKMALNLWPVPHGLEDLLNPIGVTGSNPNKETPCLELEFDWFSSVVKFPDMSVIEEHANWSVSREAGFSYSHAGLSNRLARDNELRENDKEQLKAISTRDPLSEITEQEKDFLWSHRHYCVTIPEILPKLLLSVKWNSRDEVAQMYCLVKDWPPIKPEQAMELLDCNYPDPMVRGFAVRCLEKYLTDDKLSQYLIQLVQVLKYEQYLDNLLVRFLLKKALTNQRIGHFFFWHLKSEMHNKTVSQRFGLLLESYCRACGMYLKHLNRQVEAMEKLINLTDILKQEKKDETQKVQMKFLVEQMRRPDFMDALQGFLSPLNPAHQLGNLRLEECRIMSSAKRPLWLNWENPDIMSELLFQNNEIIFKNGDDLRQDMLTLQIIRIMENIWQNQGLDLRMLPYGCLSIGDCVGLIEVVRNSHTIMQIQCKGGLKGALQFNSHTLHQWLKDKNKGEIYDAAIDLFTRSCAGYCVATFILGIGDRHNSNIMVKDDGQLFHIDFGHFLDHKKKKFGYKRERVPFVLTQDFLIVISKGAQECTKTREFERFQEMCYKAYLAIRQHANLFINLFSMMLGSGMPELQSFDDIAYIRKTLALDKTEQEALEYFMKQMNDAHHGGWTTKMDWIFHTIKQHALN
IC50 values by entry

Reference set, count: 6
Nc1nc2cc(-c3ccc4ncc(N5CC(N6CC[C@@H](O)C6)C5)nc4c3)ccc2o1 | < 100 nM
C[C@@H](N)C(=O)N1CCN(c2cnc3ccc(-c4ccc5oc(N)nc5c4)cc3n2)CC1 | < 100 nM
CN1CCN(C2CN(c3cnc4ccc(-c5ccc6oc(N)nc6c5)nc4n3)C2)CC1 | < 100 nM
Nc1nc2cc(-c3ccc4ncc(N5CCNC(C(F)(F)F)C5)nc4c3)ccc2o1 (stereo not shown) | < 100 nM
CN1CCN(c2cnc3ccc(-c4ccc5oc(N)nc5c4)cc3n2)CC1=O | < 100 nM
Nc1nc2cc(-c3ccc4ncc(C(=O)NC5CCOCC5)n4c3)ccc2o1 | < 100 nM

Shift focus to the following entry.
[Q] So what does the record say about IC50 for Nc1nc2cc(-c3ccc4ncc(N5CC(N6CCN(CCO)CC6)C5)cc4n3)ccc2o1 ?
[A] < 100 nM

----------
The entries below come with measured pIC50 values attached.
# TARGET OR TEST SYSTEM: PI3K δ (Homo sapiens (Human))
# Sequence (O00329 whole entry): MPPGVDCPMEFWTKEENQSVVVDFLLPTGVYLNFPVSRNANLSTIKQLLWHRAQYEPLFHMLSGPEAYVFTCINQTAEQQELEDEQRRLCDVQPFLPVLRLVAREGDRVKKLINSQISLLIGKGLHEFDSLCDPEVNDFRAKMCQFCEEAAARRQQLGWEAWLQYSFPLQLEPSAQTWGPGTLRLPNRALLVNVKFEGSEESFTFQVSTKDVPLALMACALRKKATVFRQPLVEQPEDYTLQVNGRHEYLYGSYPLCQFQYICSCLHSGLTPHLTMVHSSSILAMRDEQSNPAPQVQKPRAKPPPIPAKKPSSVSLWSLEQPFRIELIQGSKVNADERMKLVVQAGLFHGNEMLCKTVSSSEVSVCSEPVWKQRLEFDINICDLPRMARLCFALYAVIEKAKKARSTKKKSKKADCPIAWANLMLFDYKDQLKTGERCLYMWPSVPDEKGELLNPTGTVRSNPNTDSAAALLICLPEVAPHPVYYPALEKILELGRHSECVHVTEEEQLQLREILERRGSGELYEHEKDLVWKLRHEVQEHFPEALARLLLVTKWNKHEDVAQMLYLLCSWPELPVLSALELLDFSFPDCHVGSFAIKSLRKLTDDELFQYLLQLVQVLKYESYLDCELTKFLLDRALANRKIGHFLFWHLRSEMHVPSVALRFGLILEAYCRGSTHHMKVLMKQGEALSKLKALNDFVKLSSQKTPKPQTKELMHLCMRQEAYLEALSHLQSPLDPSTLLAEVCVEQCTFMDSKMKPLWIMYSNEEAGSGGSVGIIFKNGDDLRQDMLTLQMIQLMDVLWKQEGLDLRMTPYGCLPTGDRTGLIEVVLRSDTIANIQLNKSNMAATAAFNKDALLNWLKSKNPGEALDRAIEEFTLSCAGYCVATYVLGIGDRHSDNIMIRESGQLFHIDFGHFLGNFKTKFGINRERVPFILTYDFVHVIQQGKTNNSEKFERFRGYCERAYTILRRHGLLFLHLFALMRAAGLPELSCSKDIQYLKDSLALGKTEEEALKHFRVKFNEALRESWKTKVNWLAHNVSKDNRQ
# Sequence (P27986 whole entry partner): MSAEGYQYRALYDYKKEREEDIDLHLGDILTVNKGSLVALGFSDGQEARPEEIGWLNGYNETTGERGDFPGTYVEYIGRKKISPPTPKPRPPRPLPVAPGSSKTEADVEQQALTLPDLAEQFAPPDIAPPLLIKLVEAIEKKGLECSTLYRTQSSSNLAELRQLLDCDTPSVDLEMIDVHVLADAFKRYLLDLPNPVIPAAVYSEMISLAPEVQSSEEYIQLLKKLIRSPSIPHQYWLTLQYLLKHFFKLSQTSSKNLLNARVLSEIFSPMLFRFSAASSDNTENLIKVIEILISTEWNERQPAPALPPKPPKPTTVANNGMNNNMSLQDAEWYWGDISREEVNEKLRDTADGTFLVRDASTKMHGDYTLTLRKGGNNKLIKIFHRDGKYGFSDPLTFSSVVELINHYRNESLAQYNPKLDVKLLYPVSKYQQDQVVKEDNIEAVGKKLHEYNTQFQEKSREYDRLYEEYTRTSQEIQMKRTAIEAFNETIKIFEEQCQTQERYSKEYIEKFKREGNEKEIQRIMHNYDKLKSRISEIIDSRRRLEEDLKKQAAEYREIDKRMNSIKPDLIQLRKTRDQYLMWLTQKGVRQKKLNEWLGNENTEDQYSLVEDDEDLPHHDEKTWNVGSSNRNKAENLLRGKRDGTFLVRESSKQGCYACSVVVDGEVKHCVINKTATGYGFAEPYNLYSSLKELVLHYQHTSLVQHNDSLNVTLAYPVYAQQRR
pIC50: −log10 of the molar value.

Here is how some compounds turned out for pIC50.
Nc1nc2cc(-c3ccc4ncc(N5CC(N6CCN(CC7CC7)CC6)C5)nc4n3)ccc2o1 | > 5.00
Nc1nc2cc(-c3ccc4nccc(-c5ccncc5)c4c3)ccc2s1 | > 7.00
CN1CCC(Nc2ncnc3ccc(-c4ccc5oc(N)nc5c4)cc23)CC1 | > 7.00

[Q] Recorded pIC50 of Nc1nc2cc(-c3cc4nccc(-c5ccncc5)c4s3)ccc2o1 , please.
[A] < 5.00

[Q] # pIC50 lookup, item COC(=O)N1CCN(c2cnc3ccc(-c4ccc5oc(N)nc5c4)cc3n2)CC1
[A] > 5.00

[Q] Any idea what pIC50 was measured for CN1CC2CN(c3cnc4ccc(-c5ccc6oc(N)nc6c5)nc4n3)CC2C1 (centres unmarked) ?
[A] > 6.00

[Q] What value of pIC50 has been recorded for this entry: C[C@@H]1CN(c2cnc3ccc(-c4ccc5oc(N)nc5c4)cc3n2)C[C@H](C)O1
[A] < 5.00

[Q] Returns the measured pIC50 for the input compound. Input: CN1CCN(c2cc(-c3ccnc4ccc(-c5ccc6oc(N)nc6c5)cc34)ccn2)CC1
[A] > 7.00

[Q] Fill in: pIC50 of Nc1nc2cc(-c3ccc4ncc(-c5ccnc(N6CCOCC6)c5)n4c3)ccc2o1 is ___
[A] > 7.00

[Q] Value lookup for pIC50; key = Nc1nc2cc(-c3ccn4ncc(-c5ccncc5)c4n3)ccc2o1
[A] > 7.00

[Q] What value of measured pIC50 is listed for CN1CCC(N(C)C(=O)c2cnc3ccc(-c4ccc5oc(N)nc5c4)cn23)CC1 ?
[A] > 5.00

[Q] Which value of pIC50 has been reported for Cn1cc(-c2ccnc3ccc(-c4ccc5oc(N)nc5c4)cc23)cn1 in the records?
[A] > 7.00

[Q] Find the recorded pIC50 belonging to CC(=O)NC1CCN(C(=O)c2cnc3ccc(-c4ccc5oc(N)nc5c4)cn23)CC1 and report it.
[A] > 5.00

[Q] Consider the compound Nc1nc2cc(-c3ccc4ncc(N5CC(N6CCOCC6)C5)cc4n3)ccc2o1 and give its measured pIC50.
[A] > 5.00
